# TGT: T1, gastrin-releasing peptide receptor (GRPR) (human, UniProt P30550 1-384)
# T1 construct: whole, on cells; also called GRP receptor
# TEST_NAME: displacement of ^125I-[Tyr^4]BBN from PC-3 cells; determined with FB-PEG3-RGD-BBN
MEASUREMENT_NAME: IC50 (nM)
Quick note: give the figure in nM, leave out the unit.

Please give the measured IC50 for this binder: FB-PEG3-Glu-RGD-BBN (4-fluorobenzoyl (FB) on the amino group of the PEG3 spacer (11-amino-3,6,9-trioxaundecanoic acid), PEG3 on the Glu amino group; Glu γ-carboxylate joined to Aca; Aca between Glu and Gln; C-terminal amide (Met-NH2); cyclic (cyclo); D-Tyr at position 4; Lys side chain ε-amine joined to the α-carboxylate of Glu, also called FB-PEG3-RGD-BBN; ^18F-FB-PEG3-Glu-RGD-BBN) peptide 1: RGDYK peptide 2: EQWAVGHLM
73.3
